tested on: Candida albicans; assay: Antifungal activity against fluconazole-resistant Candida albicans 632 assessed as fungal growth inhibition by CLSI based microdilution method; assay type: functional
Lab note: anything with MIC below 20 µg/mL is marked label 1; values at 20 µg/mL or higher are marked label 0.

compound | class label
O=c1oc2ccccc2cc1COC(Cn1ccnc1)c1ccc(Cl)cc1Cl (centres undefined) | label 1
O=c1ccc2ccccc2o1 | label 0
CCC(C)n1ncn(-c2ccc(N3CCN(c4ccc(OCC5COC(Cn6cncn6)(c6ccc(Cl)cc6Cl)O5)cc4)CC3)cc2)c1=O (centres undefined) | label 0
O=c1ccc2cc(COC(Cn3ccnc3)c3ccc(F)cc3F)ccc2o1 (centres undefined) | label 0
O=c1ccc2cc(COC(Cn3ccnc3)c3ccc(Cl)cc3Cl)ccc2o1 (centres undefined) | label 1
O=c1oc2ccccc2cc1COC(Cn1ccnc1)c1ccc(F)cc1F (centres undefined) | label 1
C[C@@H](c1ncncc1F)[C@](O)(Cn1cncn1)c1ccc(F)cc1F | label 0
O=c1ccc2cc(COC(Cn3ccnc3)c3ccc(F)cc3)ccc2o1 (centres undefined) | label 0
O=c1ccc2ccc(COC(Cn3ccnc3)c3ccc(F)cc3)cc2o1 (centres undefined) | label 0
OC(Cn1cncn1)(Cn1cncn1)c1ccc(F)cc1F | label 0
O=c1ccc2ccc(COC(Cn3ccnc3)c3ccc(Cl)cc3Cl)cc2o1 (centres undefined) | label 1
OB1OCc2cc(F)ccc21 | label 1
O=c1ccc2ccc(COC(Cn3ccnc3)c3ccc(F)cc3F)cc2o1 (centres undefined) | label 0
O=c1oc2ccccc2cc1COC(Cn1ccnc1)c1ccc(F)cc1 (centres undefined) | label 1

###

# IC50 per record follows
target: Cytochrome P450 2C9 (Homo sapiens, UniProt P11712); assay: Inhibition of CYP2C9 in human liver microsomes using diclofenac as substrate preincubated for 5 mins followed by NADPH addition by LC-MS/MS analysis; assay type: ADME, Microsome
Sequence (P11712 whole entry): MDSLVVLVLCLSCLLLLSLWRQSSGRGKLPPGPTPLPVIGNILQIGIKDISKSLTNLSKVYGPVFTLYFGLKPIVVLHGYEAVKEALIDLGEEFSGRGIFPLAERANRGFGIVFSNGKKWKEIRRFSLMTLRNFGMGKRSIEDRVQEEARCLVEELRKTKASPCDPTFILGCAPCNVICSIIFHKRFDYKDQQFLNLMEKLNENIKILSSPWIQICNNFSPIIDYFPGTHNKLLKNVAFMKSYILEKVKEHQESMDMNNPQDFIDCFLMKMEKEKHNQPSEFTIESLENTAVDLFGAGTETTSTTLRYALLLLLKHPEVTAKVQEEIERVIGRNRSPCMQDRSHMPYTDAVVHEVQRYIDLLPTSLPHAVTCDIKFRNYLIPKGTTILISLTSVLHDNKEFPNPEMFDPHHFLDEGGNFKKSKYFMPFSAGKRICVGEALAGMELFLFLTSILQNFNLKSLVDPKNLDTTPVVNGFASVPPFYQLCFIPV
metric name: IC50 (nM)

compound | u | measured result
O=c1ccc2ccc(COC(Cn3ccnc3)c3ccc(Cl)cc3Cl)cc2o1 (configuration not stated) | nM | 138
Clc1ccc(COC(Cn2ccnc2)c2ccc(Cl)cc2Cl)c(Cl)c1 (configuration not stated) | nM | 115

###

# pIC50 per record follows
test: Cytotoxicity against mouse J774.A1 cells assessed as cell growth inhibition by MTT assay; assay type: toxicity, cell-based
pIC50: −log10 of the molar value.
metric name: pIC50

compound | measured result
O=c1ccc2ccc(COC(Cn3ccnc3)c3ccc(Cl)cc3Cl)cc2o1 (centres undefined) | 4.61
Clc1ccc(COC(Cn2ccnc2)c2ccc(Cl)cc2Cl)c(Cl)c1 (centres undefined) | 4.65
O=c1oc2ccccc2cc1COC(Cn1ccnc1)c1ccc(Cl)cc1Cl (centres undefined) | 4.61
O=c1ccc2cc(COC(Cn3ccnc3)c3ccc(Cl)cc3Cl)ccc2o1 (centres undefined) | 4.61

###

assay: Metabolic stability in mouse liver microsomes assessed as half life incubated for 5 to 60 mins by LC-MS/MS analysis; format: ADME, Microsome; conditions: time 5-60 min

compound | half-life [min]
O=c1ccc2ccc(COC(Cn3ccnc3)c3ccc(Cl)cc3Cl)cc2o1 (stereo not drawn) | 15.2
O=c1ccc2cc(COC(Cn3ccnc3)c3ccc(Cl)cc3Cl)ccc2o1 (stereo not drawn) | 6.09
O=c1oc2ccccc2cc1COC(Cn1ccnc1)c1ccc(Cl)cc1Cl (stereo not drawn) | 2.8

###

# IC50 per record follows
molecular target: UniProt P10635; test: Inhibition of CYP2D6 in human liver microsomes using dextromethorphan as substrate preincubated for 5 mins followed by NADPH addition by LC-MS/MS analysis; format: ADME, Microsome
Sequence (P10635 whole entry): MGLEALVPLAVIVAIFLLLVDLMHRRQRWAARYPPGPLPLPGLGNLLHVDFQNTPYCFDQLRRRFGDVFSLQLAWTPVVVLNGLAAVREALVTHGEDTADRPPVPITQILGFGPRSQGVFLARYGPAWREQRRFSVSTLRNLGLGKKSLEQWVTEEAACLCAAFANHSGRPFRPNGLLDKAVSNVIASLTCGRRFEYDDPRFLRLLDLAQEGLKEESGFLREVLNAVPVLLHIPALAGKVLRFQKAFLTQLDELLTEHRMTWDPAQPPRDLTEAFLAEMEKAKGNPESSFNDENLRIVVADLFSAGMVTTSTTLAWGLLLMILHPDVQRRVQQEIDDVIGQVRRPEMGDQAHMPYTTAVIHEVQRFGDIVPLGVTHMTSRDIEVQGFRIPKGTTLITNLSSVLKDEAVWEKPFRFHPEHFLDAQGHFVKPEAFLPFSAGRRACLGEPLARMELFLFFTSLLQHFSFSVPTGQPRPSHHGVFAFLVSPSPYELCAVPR
metric name: IC50 (nM)

compound | measured result
Clc1ccc(COC(Cn2ccnc2)c2ccc(Cl)cc2Cl)c(Cl)c1 (configuration not stated) | 875
O=c1ccc2ccc(COC(Cn3ccnc3)c3ccc(Cl)cc3Cl)cc2o1 (configuration not stated) | 1140
